B1: TPR 5TU (parent)
chain: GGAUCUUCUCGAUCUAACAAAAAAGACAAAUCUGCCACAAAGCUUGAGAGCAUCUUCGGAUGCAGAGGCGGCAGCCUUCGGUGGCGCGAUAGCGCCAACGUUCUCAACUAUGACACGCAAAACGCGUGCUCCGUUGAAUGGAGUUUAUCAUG

variants of: B1; assay: polymerase ribozyme fitness, log enrichment relative to wild type (log ratio); higher = more active; in vitro selection for triplet polymerase activity
Variants at the floor of the assay were thinned out.
TEST_READOUT: polymerase ribozyme fitness (log ratio)
Hey, just send me the number, nothing else.

Example entries begin here.
[[record]]
variant_id = "C93G C118U C123U"
quantitative_result = -3.29

[[record]]
variant_id = "C54G C76A C85G"
quantitative_result = -2.78

[[record]]
variant_id = "U13C C76A U82G C85U C118G"
quantitative_result = -2.92

[[record]]
variant_id = "A16C U31A U104G A142C"
quantitative_result = -2.77

[[record]]
variant_id = "G25C A28G G80C G83A"
quantitative_result = -4.19


Report polymerase ribozyme fitness (log ratio) for C69U A98U
-1.15

Report polymerase ribozyme fitness (log ratio) for G143A U145A
-2.03

Report polymerase ribozyme fitness (log ratio) for A16U G59C A150U
-0.494
